Run description: Cytotoxicity against human HepG2 cells after 24 hrs by MTT assay
Format: cell-based
Stated conditions: read-out: LD50
Property label: CC50 at 24 h

>>> print(df.to_string())
                           structure_smiles  property_label       result
0  CC(C)(C)OC(=O)N[C@@H](Cc1ccccc1)[C@H](O)CSc1ccccn1    CC50 at 24 h  > 200 µg/mL
1  O=[N+]([O-])c1ccc(S(=O)(=O)N[C@@H](Cc2ccccc2)[C@H](O)CSc2ccccn2)cc1    CC50 at 24 h  > 200 µg/mL
2  Cc1ccc(S(=O)(=O)N[C@@H](Cc2ccccc2)[C@H](O)CSc2ccccn2)cc1    CC50 at 24 h    191 µg/mL
3  CC(C)(C)OC(=O)N[C@@H](Cc1ccccc1)[C@H](O)CSc1ncccn1    CC50 at 24 h    197 µg/mL
4  O=S(=O)(N[C@@H](Cc1ccccc1)[C@H](O)CSc1ncccn1)c1ccc(Br)cc1    CC50 at 24 h    101 µg/mL
5  O=[N+]([O-])c1ccc(S(=O)(=O)N[C@@H](Cc2ccccc2)[C@H](O)CSc2ncccn2)cc1    CC50 at 24 h  > 200 µg/mL
